Each entry below lists one item and its recorded Dmax value.
- SYSTEM UNDER TEST: IRAK4 (Homo sapiens, UniProt Q9NWZ3)
- Construct: endogenous in cells; host or cells: Karpas299
- ASSAY DETAILS: IRAK4 Degradation Assay with Human Serum (Karpas299, HTRF/TR-FRET)
- Format: cell-based
- RUN PARAMETERS: Karpas-299 in human serum, 24 hrs treatment; read-out: IRAK4 degradtion with human serum assay Dmax (%)
- Description: IRAK4 degradation was measured using a TR-FRET-based method (Degorce, François, et al. Current chemical genomics. 2009, 3: 22). […] IRAK4 level was quantitated using the HTRF kit as described by the manufacturer manual (Cisbio). FRET signals were measured using a PHERAstar FSX reader (BMG Labtech). […] The inhibition (degradation) percentage of the compound was calculated by the following equation: […]
MEASURED ATTRIBUTE: Dmax (%)

SMILES STRING | SYSTEM UNDER TEST | REPORTED MEASUREMENT
COC[C@H]1CN([C@H]2CC[C@H](n3cc4cc(NC(=O)c5ccc6cc(C#N)cnn56)c(C(C)(C)O)cc4n3)CC2)CCN1C(=O)[C@@H]1CCN(c2cc(F)c(N3CCC(=O)NC3=O)c(F)c2)C1 | IRAK4 (Homo sapiens, UniProt Q9NWZ3) | 95
CC(C)(O)c1cc2nn(C3CCN(C4CCN(C(=O)C5CN(c6cc(F)c([C@H]7CCC(=O)NC7=O)c(F)c6)C5)CC4)CC3)cc2cc1NC(=O)c1ccc2cc(C#N)cnn12 | IRAK4 (Homo sapiens, UniProt Q9NWZ3) | 99
COC[C@@H]1CN([C@H]2CC[C@H](n3cc4cc(NC(=O)c5ccc6cc(C#N)cnn56)c(C(C)(C)O)cc4n3)CC2)CCN1CCc1cc(F)c([C@H]2CCC(=O)NC2=O)c(F)c1 | IRAK4 (Homo sapiens, UniProt Q9NWZ3) | 98
CC(C)(O)c1cc2nn(C3CCN([C@@H]4CCN(C5CCN(c6cc(F)c([C@H]7CCC(=O)NC7=O)c(F)c6)CC5)CC4(F)F)CC3)cc2cc1NC(=O)c1ccc2cc(C#N)cnn12 | IRAK4 (Homo sapiens, UniProt Q9NWZ3) | 96
CC(C)(O)c1cc2nn([C@H]3CC[C@H](N4CCN(CCc5cc(F)c([C@H]6CCC(=O)NC6=O)c(F)c5)CC4)CC3)cc2cc1NC(=O)c1ccc2cc(Br)cnn12 | IRAK4 (Homo sapiens, UniProt Q9NWZ3) | 97

* * *

- SYSTEM UNDER TEST: IRAK4 (Homo sapiens, UniProt Q9NWZ3)
- Construct: endogenous in cells; host or cells: Karpas299
- Sequence (Q9NWZ3 1-460): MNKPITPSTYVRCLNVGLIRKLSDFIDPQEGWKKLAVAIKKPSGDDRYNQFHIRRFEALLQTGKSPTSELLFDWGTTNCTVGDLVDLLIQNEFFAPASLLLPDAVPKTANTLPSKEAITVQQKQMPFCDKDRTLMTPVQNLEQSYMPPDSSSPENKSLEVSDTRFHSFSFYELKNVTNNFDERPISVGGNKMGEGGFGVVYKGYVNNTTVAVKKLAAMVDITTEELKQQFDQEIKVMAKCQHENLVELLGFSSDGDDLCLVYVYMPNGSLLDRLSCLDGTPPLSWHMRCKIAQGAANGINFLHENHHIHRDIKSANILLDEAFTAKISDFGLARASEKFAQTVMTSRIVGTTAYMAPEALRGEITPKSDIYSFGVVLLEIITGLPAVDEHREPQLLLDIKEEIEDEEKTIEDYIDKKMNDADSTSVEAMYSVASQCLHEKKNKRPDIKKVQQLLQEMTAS
- ASSAY DETAILS: IRAK4 Degradation Assay with Human Serum (Karpas299, HTRF/TR-FRET)
- Format: cell-based
- RUN PARAMETERS: Karpas-299 in human serum, 24 hrs treatment; read-out: IRAK4 degradtion with human serum assay DC50

COMPOUND | SYSTEM UNDER TEST | DC50
COc1cc2nn([C@H]3CC[C@H](N4CCN(CCc5cc(F)c([C@H]6CCC(=O)NC6=O)c(F)c5)CC4)CC3)cc2cc1NC(=O)c1ccc2cc(C#N)cnn12 | IRAK4 (Homo sapiens, UniProt Q9NWZ3) | 10 nM
COC[C@@H]1CN([C@H]2CC[C@H](n3cc4cc(NC(=O)c5ccc6cc(C#N)cnn56)c(C(C)(C)O)cc4n3)CC2)CCN1C1CCN(c2ccc(C3CCC(=O)NC3=O)nc2C)CC1 (stereo partly drawn) | IRAK4 (Homo sapiens, UniProt Q9NWZ3) | 6.1 nM
CC(C)(O)c1cc2nn(C34CC(N5CCN(CC6CN(c7cc(F)c(N8CCC(=O)NC8=O)c(F)c7)C6)CC5)(C3)C4)cc2cc1NC(=O)c1ccc2cc(C#N)cnn12 | IRAK4 (Homo sapiens, UniProt Q9NWZ3) | 10 nM
